- measurement context: 328.15 K; 101.33 kPa; Liquid; Vibrating tube method
reported property: mass density (kg/m3)
Hi! Could you send only the number? It should be in kg/m3, unit omitted.

CCCCCCC(=O)[O-].C[NH2+]C1CCCCC1 [N-methylcyclohexylammonium heptanoate]: 919.59
CCCCCCCC(=O)[O-].C[NH2+]C1CCCCC1 [N-methylcyclohexylammonium octanoate]: 914.07
CCCCC(=O)[O-].C[NH2+]C1CCCCC1 [N-methylcyclohexylammonium pentanoate]: 940.1

// below: mass density requested for another compound
Determine from records and report mass density for CCCCCC(=O)[O-].C[NH2+]C1CCCCC1 [N-methylcyclohexylammonium hexanoate] 929.96

----------
- measurement context: 328.15 K; 101.33 kPa; Liquid; Sing-around technique in a fixed-path interferometer
Consider the following compounds and their measured speed of sound readings.
Hi! Could you send only the number? It should be in m/s, unit omitted.

CCCCCC(=O)[O-].C[NH2+]C1CCCCC1 [N-methylcyclohexylammonium hexanoate]: 1357.5
CCCCCCC(=O)[O-].C[NH2+]C1CCCCC1 [N-methylcyclohexylammonium heptanoate]: 1351.4
CCCCCCCC(=O)[O-].C[NH2+]C1CCCCC1 [N-methylcyclohexylammonium octanoate]: 1346.5

// below: speed of sound requested for another compound
Determine from records and report speed of sound for CCCCC(=O)[O-].C[NH2+]C1CCCCC1 [N-methylcyclohexylammonium pentanoate] 1366.5

----------
Consider the following compounds and their measured mass density readings.
- measurement context: 308.15 K; 101.33 kPa; Liquid; Vibrating tube method
Hi! Could you send only the number? It should be in kg/m3, unit omitted.

CCCCCCCC(=O)[O-].C[NH2+]C1CCCCC1 [N-methylcyclohexylammonium octanoate]: 928.25

Determine from records and report mass density for CCCCCCC(=O)[O-].C[NH2+]C1CCCCC1 [N-methylcyclohexylammonium heptanoate] 934.81

Determine from records and report mass density for CCCCCC(=O)[O-].C[NH2+]C1CCCCC1 [N-methylcyclohexylammonium hexanoate] 944.56

Determine from records and report mass density for CCCCC(=O)[O-].C[NH2+]C1CCCCC1 [N-methylcyclohexylammonium pentanoate] 955.01

----------
- measurement context: 323.15 K; 101.33 kPa; Liquid; Sing-around technique in a fixed-path interferometer
± gives the expanded uncertainty stated by the source.
reported property: speed of sound

Field: example entries. Status: answers known.
CCCCCC(=O)[O-].C[NH2+]C1CCCCC1 [N-methylcyclohexylammonium hexanoate]: 1375 ± 8.6 m/s
CCCCCCCC(=O)[O-].C[NH2+]C1CCCCC1 [N-methylcyclohexylammonium octanoate]: 1363.7 ± 8.6 m/s
CCCCCCC(=O)[O-].C[NH2+]C1CCCCC1 [N-methylcyclohexylammonium heptanoate]: 1368.6 ± 8.6 m/s

// below: speed of sound requested for another compound
Determine from records and report speed of sound for CCCCC(=O)[O-].C[NH2+]C1CCCCC1 [N-methylcyclohexylammonium pentanoate] 1384.2 ± 8.6 m/s

----------
- measurement context: 323.15 K; 101.33 kPa; Liquid; Vibrating tube method
reported property: mass density (kg/m3)
Hi! Could you send only the number? It should be in kg/m3, unit omitted.

Field: example entries. Status: answers known.
CCCCCCCC(=O)[O-].C[NH2+]C1CCCCC1 [N-methylcyclohexylammonium octanoate]: 917.65
CCCCCC(=O)[O-].C[NH2+]C1CCCCC1 [N-methylcyclohexylammonium hexanoate]: 933.66
CCCCC(=O)[O-].C[NH2+]C1CCCCC1 [N-methylcyclohexylammonium pentanoate]: 943.88

// below: mass density requested for another compound
Determine from records and report mass density for CCCCCCC(=O)[O-].C[NH2+]C1CCCCC1 [N-methylcyclohexylammonium heptanoate] 923.44

----------
Consider the following compounds and their measured mass density readings.
- measurement context: 293.15 K; 101.33 kPa; Liquid; Vibrating tube method
Hi! Could you send only the number? It should be in kg/m3, unit omitted.

Field: example entries. Status: answers known.
CCCCCCCC(=O)[O-].C[NH2+]C1CCCCC1 [N-methylcyclohexylammonium octanoate]: 938.59
CCCCCC(=O)[O-].C[NH2+]C1CCCCC1 [N-methylcyclohexylammonium hexanoate]: 955.14

Determine from records and report mass density for CCCCC(=O)[O-].C[NH2+]C1CCCCC1 [N-methylcyclohexylammonium pentanoate] 965.76

Determine from records and report mass density for CCCCCCC(=O)[O-].C[NH2+]C1CCCCC1 [N-methylcyclohexylammonium heptanoate] 945.8

----------
- measurement context: 298.15 K; 101.33 kPa; Liquid; Vibrating tube method
± gives the expanded uncertainty stated by the source.
reported property: mass density

CCCCC(=O)[O-].C[NH2+]C1CCCCC1 [N-methylcyclohexylammonium pentanoate]: 962.21 ± 1.9 kg/m3
CCCCCC(=O)[O-].C[NH2+]C1CCCCC1 [N-methylcyclohexylammonium hexanoate]: 951.65 ± 1.9 kg/m3
CCCCCCCC(=O)[O-].C[NH2+]C1CCCCC1 [N-methylcyclohexylammonium octanoate]: 935.17 ± 1.8 kg/m3

// below: mass density requested for another compound
Determine from records and report mass density for CCCCCCC(=O)[O-].C[NH2+]C1CCCCC1 [N-methylcyclohexylammonium heptanoate] 942.18 ± 1.8 kg/m3

----------
- measurement context: 313.15 K; 101.33 kPa; Liquid; Vibrating tube method
reported property: mass density (kg/m3)
Hi! Could you send only the number? It should be in kg/m3, unit omitted.

Field: example entries. Status: answers known.
CCCCCCCC(=O)[O-].C[NH2+]C1CCCCC1 [N-methylcyclohexylammonium octanoate]: 924.74
CCCCCC(=O)[O-].C[NH2+]C1CCCCC1 [N-methylcyclohexylammonium hexanoate]: 940.96
CCCCCCC(=O)[O-].C[NH2+]C1CCCCC1 [N-methylcyclohexylammonium heptanoate]: 931.05

Determine from records and report mass density for CCCCC(=O)[O-].C[NH2+]C1CCCCC1 [N-methylcyclohexylammonium pentanoate] 951.34

----------
- measurement context: 318.15 K; 101.33 kPa; Liquid; Sing-around technique in a fixed-path interferometer
± gives the expanded uncertainty stated by the source.
reported property: speed of sound
The reply should read as a number followed by its unit.

Field: example entries. Status: answers known.
CCCCC(=O)[O-].C[NH2+]C1CCCCC1 [N-methylcyclohexylammonium pentanoate]: 1402.1 ± 8.6 m/s
CCCCCC(=O)[O-].C[NH2+]C1CCCCC1 [N-methylcyclohexylammonium hexanoate]: 1392.6 ± 8.6 m/s
CCCCCCC(=O)[O-].C[NH2+]C1CCCCC1 [N-methylcyclohexylammonium heptanoate]: 1385.1 ± 8.6 m/s

// below: speed of sound requested for another compound
Determine from records and report speed of sound for CCCCCCCC(=O)[O-].C[NH2+]C1CCCCC1 [N-methylcyclohexylammonium octanoate] 1381 ± 8.6 m/s

----------
- measurement context: 333.15 K; 101.33 kPa; Liquid; Sing-around technique in a fixed-path interferometer
reported property: speed of sound (m/s)
Hi! Could you send only the number? It should be in m/s, unit omitted.

CCCCCCCC(=O)[O-].C[NH2+]C1CCCCC1 [N-methylcyclohexylammonium octanoate]: 1329.4
CCCCCCC(=O)[O-].C[NH2+]C1CCCCC1 [N-methylcyclohexylammonium heptanoate]: 1334.1
CCCCCC(=O)[O-].C[NH2+]C1CCCCC1 [N-methylcyclohexylammonium hexanoate]: 1340

// below: speed of sound requested for another compound
Determine from records and report speed of sound for CCCCC(=O)[O-].C[NH2+]C1CCCCC1 [N-methylcyclohexylammonium pentanoate] 1348.8

----------
- measurement context: 308.15 K; 101.33 kPa; Liquid; Sing-around technique in a fixed-path interferometer
Consider the following compounds and their measured speed of sound readings.
Hi! Could you send only the number? It should be in m/s, unit omitted.

CCCCCC(=O)[O-].C[NH2+]C1CCCCC1 [N-methylcyclohexylammonium hexanoate]: 1428.2

Determine from records and report speed of sound for CCCCCCCC(=O)[O-].C[NH2+]C1CCCCC1 [N-methylcyclohexylammonium octanoate] 1417.2

Determine from records and report speed of sound for CCCCC(=O)[O-].C[NH2+]C1CCCCC1 [N-methylcyclohexylammonium pentanoate] 1438.2

Determine from records and report speed of sound for CCCCCCC(=O)[O-].C[NH2+]C1CCCCC1 [N-methylcyclohexylammonium heptanoate] 1422.2
